Just for reference, the supplement of paper PMC8728848 is where these values come from.

# assay.target: Gal(b1-4)GlcNAc(b1-2)Man(a1-3)[Gal(b1-4)GlcNAc(b1-2)Man(a1-6)]Man(b1-4)GlcNAc(b1-4)GlcNAc
# assay.comment: glycan array binding signal (z-score within array); higher = stronger binding
# measurement.setup: glycan notation: IUPAC condensed, linker removed
This is one part of a sample in which the strongest signals are shown more often than they occur.
Label Yes when glycan array binding signal (z-score) is at or above -0.3; otherwise label No.

- Galatrox (Botrops atrox), P0DM53 (protein) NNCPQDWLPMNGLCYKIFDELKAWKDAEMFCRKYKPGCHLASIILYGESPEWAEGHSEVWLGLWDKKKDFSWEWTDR: Yes
- Vd2LysM (Verticillium dahliae) (protein) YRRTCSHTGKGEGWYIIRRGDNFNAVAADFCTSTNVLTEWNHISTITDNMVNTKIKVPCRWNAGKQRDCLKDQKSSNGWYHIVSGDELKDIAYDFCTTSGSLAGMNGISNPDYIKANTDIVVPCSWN: No
- Pwp5 ND (Candida glabrata) (protein) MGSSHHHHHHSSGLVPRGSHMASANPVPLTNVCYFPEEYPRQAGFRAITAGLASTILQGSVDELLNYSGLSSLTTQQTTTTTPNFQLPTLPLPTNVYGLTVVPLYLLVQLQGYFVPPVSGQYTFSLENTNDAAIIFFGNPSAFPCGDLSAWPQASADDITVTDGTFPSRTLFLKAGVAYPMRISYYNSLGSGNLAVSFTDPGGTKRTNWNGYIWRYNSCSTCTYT: Yes
- HA-11100 (Pseudomonas aeruginosa), Q02G51_PSEAB (protein) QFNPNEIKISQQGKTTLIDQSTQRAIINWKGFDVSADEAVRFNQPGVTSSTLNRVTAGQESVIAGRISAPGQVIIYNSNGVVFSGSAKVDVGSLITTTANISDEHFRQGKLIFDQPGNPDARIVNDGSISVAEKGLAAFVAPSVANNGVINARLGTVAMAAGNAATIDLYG: No
- HBHA-Rv (Mycobacterium tuberculosum), P0A5P6 (protein) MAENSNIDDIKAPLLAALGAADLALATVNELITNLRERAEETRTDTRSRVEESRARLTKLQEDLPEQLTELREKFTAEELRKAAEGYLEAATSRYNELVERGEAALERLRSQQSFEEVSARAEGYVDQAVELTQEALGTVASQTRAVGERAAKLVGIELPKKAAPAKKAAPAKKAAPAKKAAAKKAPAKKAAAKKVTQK: Yes
- Epa20 (Candida glabrata) (protein) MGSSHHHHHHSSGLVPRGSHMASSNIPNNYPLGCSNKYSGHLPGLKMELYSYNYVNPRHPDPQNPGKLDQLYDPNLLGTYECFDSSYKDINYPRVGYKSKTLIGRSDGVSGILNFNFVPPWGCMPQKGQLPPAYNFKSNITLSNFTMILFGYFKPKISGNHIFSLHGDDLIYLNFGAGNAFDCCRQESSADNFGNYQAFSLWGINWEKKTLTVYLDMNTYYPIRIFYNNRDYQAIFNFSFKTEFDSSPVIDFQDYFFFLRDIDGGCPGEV: No
